# Test Method Notes: in vitro
# Particulars: PAMPA
Reported Endpoint: Papp (×10⁻⁶ cm/s)

Here's what some known entries look like.
# return recorded Papp for input C#C[C@H](CC(N)=O)NC(=O)[C@@H]1C[C@@H](C)CN1C(=O)C1(c2ccc(OC(F)(F)F)cc2)CC1
2.8

# return recorded Papp for input N#C[C@H](CC(N)=O)NC(=O)[C@@H]1CCCN1C(=O)C1(c2ccc(F)cc2)CC1
2.9

(I) N#C[C@H](CC(N)=O)NC(=O)[C@@H]1CCCN1C(=O)Cc1ccccc1
(II) C#C[C@H](CC(N)=O)NC(=O)[C@@H]1C[C@H](C)CN1C(=O)C1(c2ccc(OC(F)(F)F)cc2)CC1
Task for the reader: decide whether I or II has the larger Papp. Label of pick, please.
I
